Reference source for all entries: ChEMBL document CHEMBL1143708

# procedure_summary: Cytotoxicity against E6SM cells assessed as alteration in cell morphology
# Assay type: cell-based
# protocol_conditions: human
readout_type: MCC (µg/mL)
Kindly provide the numeric value in µg/mL only, without the unit symbol.

Example compounds with recorded MCC:
line_notation=C[Si](C)(C)C#Cc1cn([C@@H]2O[C@H](CO)[C@@H](O)[C@@H]2O)c(=O)[nH]c1=O number=400
line_notation=CC(=O)OC[C@H]1O[C@@H](n2cc(C#CI)c(=O)[nH]c2=O)[C@@H](OC(C)=O)[C@@H]1OC(C)=O number=40
line_notation=C#Cc1cn([C@@H]2O[C@H](CO)[C@@H](O)[C@@H]2O)c(=O)[nH]c1=O number=400

Proceeding to the next compound to report its MCC.
Recorded MCC for `NC(=O)c1ncn([C@@H]2O[C@H](CO)[C@@H](O)[C@H]2O)n1` , please?
400

* * *

# procedure_summary: Cytotoxicity against HEL cells assessed as alteration in cell morphology
# Assay type: cell-based
# protocol_conditions: human
# MCC annotations

Example molecules with recorded MCC:
line_notation=C[Si](C)(C)C#Cc1cn([C@H]2C[C@H](O)[C@@H](CO)O2)c(=O)[nH]c1=O result="200 µM"
line_notation=CC(=O)OC[C@H]1O[C@@H](n2cc(C#CI)c(=O)[nH]c2=O)[C@@H](OC(C)=O)[C@@H]1OC(C)=O result="50 µM"
line_notation=Nc1nc2c(ncn2COC(CO)CO)c(=O)[nH]1 result="> 200 µM"
line_notation=C[Si](C)(C)C#Cc1cn([C@@H]2O[C@H](CO)[C@@H](O)[C@@H]2O)c(=O)[nH]c1=O result="200 µM"
line_notation=C#Cc1cn([C@@H]2O[C@H](CO)[C@@H](O)[C@@H]2O)c(=O)[nH]c1=O result="200 µM"
line_notation=O=c1[nH]c(=O)n([C@H]2C[C@H](O)[C@@H](CO)O2)cc1C#CI result="200 µM"

Recorded MCC for `C#Cc1cn([C@H]2C[C@H](O)[C@@H](CO)O2)c(=O)[nH]c1=O` , please?
> 200 µM

* * *

# Test system: Human alphaherpesvirus 3
# procedure_summary: Antiviral activity against thymidine kinase deficient VZV YS in HEL cells assessed as reduction of virus plaque formation
# Type: functional, organism-based
# protocol_conditions: Human alphaherpesvirus 3, YS
readout_type: pEC50
Scale for pEC50: -log10 of concentration given in mol/L; no unit attached.

line_notation=O=c1[nH]c(=O)n([C@H]2C[C@H](O)[C@@H](CO)O2)cc1C#CI number=6.11
line_notation=C#Cc1cn([C@H]2C[C@H](O)[C@@H](CO)O2)c(=O)[nH]c1=O number=6.12

Proceeding to the next compound to report its pEC50.
Recorded pEC50 for `C[Si](C)(C)C#Cc1cn([C@H]2C[C@H](O)[C@@H](CO)O2)c(=O)[nH]c1=O` , please?
6.05

* * *

# Test system: Human alphaherpesvirus 1
# procedure_summary: Antiviral activity against thymidine kinase deficient HSV1 VMW1837 in E6SM cells assessed as reduction of virus-induced cytopathogenicity
# Format: functional, organism-based
# protocol_conditions: Human alphaherpesvirus 1, VMW1837, E6SM
# log10 of EC50 annotations
Response schema: value (number) is log10 of EC50 in units of µg/mL.

line_notation=O=c1[nH]c(=O)n([C@H]2C[C@H](O)[C@@H](CO)O2)cc1C#CI number=0.85

Recorded log10 of EC50 for `Nc1nc2c(ncn2COC(CO)CO)c(=O)[nH]1` , please?
-1.70

Recorded log10 of EC50 for `O=c1[nH]c(=O)n([C@H]2C[C@H](O)[C@@H](CO)O2)cc1/C=C/Br` , please?
1.60

Recorded log10 of EC50 for `C#Cc1cn([C@H]2C[C@H](O)[C@@H](CO)O2)c(=O)[nH]c1=O` , please?
0.60

Recorded log10 of EC50 for `Nc1nc2c(ncn2COCCO)c(=O)[nH]1` , please?
0.85

Recorded log10 of EC50 for `C[Si](C)(C)C#Cc1cn([C@H]2C[C@H](O)[C@@H](CO)O2)c(=O)[nH]c1=O` , please?
0.85

Recorded log10 of EC50 for `C[Si](C)(C)C#Cc1cn([C@@H]2O[C@H](CO)[C@@H](O)[C@@H]2O)c(=O)[nH]c1=O` , please?
2.18

Recorded log10 of EC50 for `NC(=O)c1ncn([C@@H]2O[C@H](CO)[C@@H](O)[C@H]2O)n1` , please?
1.85

* * *

# IC50 annotations
# procedure_summary: Inhibition of proliferation of VZV thymidine kinase expressing OSTtk-/VZVtk+ -a cells
# Type: functional
# protocol_conditions: Homo sapiens

molecule=C#Cc1cn([C@H]2C[C@H](O)[C@@H](CO)O2)c(=O)[nH]c1=O result="83 nM"
molecule=CC(=O)OC[C@H]1O[C@@H](n2cc(C#CI)c(=O)[nH]c2=O)[C@@H](OC(C)=O)[C@@H]1OC(C)=O result="3600 nM"
molecule=O=c1[nH]c(=O)n([C@H]2C[C@H](O)[C@@H](CO)O2)cc1C#CI result="63 nM"
molecule="O=c1[nH]c(=O)n([C@@H]2O[C@H](CO)[C@@H](O)C2O)cc1/C=C/Br (single isomer, unassigned) [SORIVUDINE]" result="150 nM"
molecule="O=c1[nH]c(=O)n([C@H]2C[C@H](O)[C@@H](CO)O2)cc1/C=C/Br [BRIVUDINE]" result="600 nM"

Recorded IC50 for `C[Si](C)(C)C#Cc1cn([C@@H]2O[C@H](CO)[C@@H](O)[C@@H]2O)c(=O)[nH]c1=O` , please?
750 nM

Recorded IC50 for `C[Si](C)(C)C#Cc1cn([C@H]2C[C@H](O)[C@@H](CO)O2)c(=O)[nH]c1=O` , please?
41 nM

* * *

# procedure_summary: Cytotoxicity against HEL cells
# Assay type: cell-based
# protocol_conditions: human
readout_type: CC50 (µM)
Kindly provide the numeric value in µM only, without the unit symbol.

Example compounds with recorded CC50:
line_notation=Nc1ccn(C[C@@H](CO)OCP(=O)(O)O)c(=O)n1 unit_descriptor=µM number=121
line_notation=C[Si](C)(C)C#Cc1cn([C@@H]2O[C@H](CO)[C@@H](O)[C@@H]2O)c(=O)[nH]c1=O unit_descriptor=µM number=127
line_notation=O=c1[nH]c(=O)n([C@H]2C[C@H](O)[C@@H](CO)O2)cc1C#CI unit_descriptor=µM number=0.76
line_notation=C[Si](C)(C)C#Cc1cn([C@H]2C[C@H](O)[C@@H](CO)O2)c(=O)[nH]c1=O unit_descriptor=µM number=0.18
line_notation=CC(=O)OC[C@H]1O[C@@H](n2cc(C#CI)c(=O)[nH]c2=O)[C@@H](OC(C)=O)[C@@H]1OC(C)=O unit_descriptor=µM number=20

Proceeding to the next compound to report its CC50.
Recorded CC50 for `C#Cc1cn([C@H]2C[C@H](O)[C@@H](CO)O2)c(=O)[nH]c1=O` , please?
2.5

* * *

# IC50 annotations
# Test system: FM3A
# procedure_summary: Inhibition of proliferation of thymidine kinase deficient mouse FM3A cells expressing HSV2 thymidine kinase
# Format: functional, cell-based
Kindly provide the numeric value in nM only, without the unit symbol.

Example compounds with recorded IC50:
line_notation=C[Si](C)(C)C#Cc1cn([C@@H]2O[C@H](CO)[C@@H](O)[C@@H]2O)c(=O)[nH]c1=O unit_descriptor=nM number=290
line_notation=C[Si](C)(C)C#Cc1cn([C@H]2C[C@H](O)[C@@H](CO)O2)c(=O)[nH]c1=O unit_descriptor=nM number=480
line_notation=CC(=O)OC[C@H]1O[C@@H](n2cc(C#CI)c(=O)[nH]c2=O)[C@@H](OC(C)=O)[C@@H]1OC(C)=O unit_descriptor=nM number=960
line_notation=C#Cc1cn([C@H]2C[C@H](O)[C@@H](CO)O2)c(=O)[nH]c1=O unit_descriptor=nM number=390

Proceeding to the next compound to report its IC50.
Item `O=c1[nH]c(=O)n([C@H]2C[C@H](O)[C@@H](CO)O2)cc1C#CI` with FM3A - IC50?
350

* * *

# Tested on: OST
# procedure_summary: Inhibition of proliferation of thymidine kinase deficient OST cells
# Type: functional, cell-based
# protocol_conditions: Homo sapiens
readout_type: pIC50
Scale for pIC50: -log10 of concentration given in mol/L; no unit attached.

Example molecules with recorded pIC50:
line_notation=C#Cc1cn([C@H]2C[C@H](O)[C@@H](CO)O2)c(=O)[nH]c1=O number=4.64
line_notation=O=c1[nH]c(=O)n([C@H]2C[C@H](O)[C@@H](CO)O2)cc1C#CI number=4.47
line_notation=C[Si](C)(C)C#Cc1cn([C@H]2C[C@H](O)[C@@H](CO)O2)c(=O)[nH]c1=O number=4.64

Recorded pIC50 for `CC(=O)OC[C@H]1O[C@@H](n2cc(C#CI)c(=O)[nH]c2=O)[C@@H](OC(C)=O)[C@@H]1OC(C)=O` , please?
5.27
